Target: Frizzled-2 (Homo sapiens, UniProt Q14332)
Sequence (Q14332 24-565 limits assumed): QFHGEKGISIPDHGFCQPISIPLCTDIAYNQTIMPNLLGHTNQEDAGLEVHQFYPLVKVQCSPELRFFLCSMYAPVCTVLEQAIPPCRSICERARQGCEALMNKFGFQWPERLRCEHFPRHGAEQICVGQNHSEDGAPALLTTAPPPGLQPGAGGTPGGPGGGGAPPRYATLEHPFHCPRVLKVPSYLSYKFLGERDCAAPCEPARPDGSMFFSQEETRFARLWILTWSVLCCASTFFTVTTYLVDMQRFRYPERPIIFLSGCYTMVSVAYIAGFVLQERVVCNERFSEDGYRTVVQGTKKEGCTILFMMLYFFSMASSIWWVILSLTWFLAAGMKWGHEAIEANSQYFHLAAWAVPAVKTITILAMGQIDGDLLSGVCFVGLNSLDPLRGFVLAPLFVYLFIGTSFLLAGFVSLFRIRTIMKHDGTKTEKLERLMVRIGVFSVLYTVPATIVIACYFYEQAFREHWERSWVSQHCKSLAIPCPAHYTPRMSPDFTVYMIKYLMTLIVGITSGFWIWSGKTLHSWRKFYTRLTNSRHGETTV
Assay: Antagonist activity at Wnt3a-stimulated frizzled-2 (unknown origin) expressed in human HEK293superTOP flash cells at 10 nM incubated for 24 hrs by luciferase reporter gene assay
Format: functional, cell-based
Settings: HEK293
Active and inactive are the calls of the source. No cut-off for these calls is given here. Residues, ends and D or L forms follow the SMILES beside them.
experimental.endpoint: inhibition

| compound | target.under.test | measured.result |
| --- | --- | --- |
| CSCC[C@H](NC(=O)[C@H](C)NC(=O)[C@H](CCC(=O)O)NC(=O)[C@H](CO)NC(=O)[C@@H](NC(=O)[C@H](CCCCN)NC(=O)[C@H](CC(N)=O)NC(=O)[C@H](CS)NC(C)=O)[C@@H](C)O)C(=O)N[C@@H](CC(=O)O)C(=O)NCC(=O)N[C@@H](CS)C(=O)N[C@@H](CCC(=O)O)C(=O)N[C@@H](CC(C)C)C(N)=O (Ac-CNKTSEAMDGCEL-NH2) | Frizzled-2 (Homo sapiens, UniProt Q14332) | inactive |
| CC(=O)N[C@@H](CS)C(=O)N[C@@H](CC(N)=O)C(=O)N[C@@H](CCCCN)C(=O)N[C@H](C(=O)N[C@@H](CO)C(=O)N[C@@H](CCC(=O)O)C(=O)NCC(=O)N[C@@H](C)C(=O)N[C@@H](CC(=O)O)C(=O)NCC(=O)N[C@@H](CS)C(=O)N[C@@H](CCC(=O)O)C(=O)N[C@@H](CC(C)C)C(N)=O)[C@@H](C)O (Ac-CNKTSEGADGCEL-NH2) | Frizzled-2 (Homo sapiens, UniProt Q14332) | inactive |

Hey, just so you know, these numbers are from ChEMBL document CHEMBL4806959.
